Each entry below lists one item and its recorded pKi value.
- Tested target: MCH receptor (Homo sapiens)
- Construct: expressed in transfected cells; host or cells: CHO cells
- Assay info: MCH Receptor Binding Assay ([125I]-MCH, SPA, membranes from CHO cells expressing the MCH receptor)
- Condition description: MCH Receptor Antagonist Activity; rated A/B/C; read-out: Av. MCH Ki
pKi: −log10 of the molar value.

Below, 3 compounds whose answers are already recorded.
compound="O=C(CN1CCc2cc(-c3cc(Cl)ccc3Cl)ccc2C1C1CCN(C2CCCC2)CC1)Nc1cc(Cl)cc(Cl)c1 (stereo not shown)" result="7.00 to 9.00"
compound="COc1cccc(-c2ccc3c(c2)CCN(CC(=O)Nc2cc(Cl)cc(Cl)c2)C3C2CCN(C3CCCC3)CC2)c1 (stereo not shown)" result="7.00 to 9.00"
compound="O=C(CN1CCc2cc(-c3ccc[nH]3)ccc2C1C1CCN(C2CCCC2)CC1)Nc1cc(Cl)cc(Cl)c1 (stereo not shown)" result="6.30 to 7.00"

Could you now consider this next compound?
So what's the measured pKi for this one? O=C(CN1CCc2cc(-c3ccsc3)ccc2C1C1CCN(C2CCCC2)CC1)Nc1cc(Cl)cc(Cl)c1 (stereo not shown) 6.30 to 7.00

---

- Tested target: MCH receptor (Homo sapiens, UniProt Q99705)
- Construct: expressed in transfected cells; host or cells: CHO cells
- Sequence (Q99705 whole entry): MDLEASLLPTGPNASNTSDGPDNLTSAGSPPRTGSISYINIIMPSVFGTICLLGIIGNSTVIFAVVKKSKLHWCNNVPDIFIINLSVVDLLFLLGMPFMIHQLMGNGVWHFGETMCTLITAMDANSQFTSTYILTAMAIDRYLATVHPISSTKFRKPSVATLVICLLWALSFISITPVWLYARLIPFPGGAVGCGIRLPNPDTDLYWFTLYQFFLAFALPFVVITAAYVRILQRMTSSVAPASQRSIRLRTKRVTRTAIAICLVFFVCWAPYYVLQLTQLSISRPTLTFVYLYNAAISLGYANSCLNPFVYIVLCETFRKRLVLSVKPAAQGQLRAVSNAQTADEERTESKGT
- Assay info: MCH Receptor Binding Assay ([125I]-MCH, SPA, membranes from CHO cells expressing the MCH receptor)
- Condition description: MCH Receptor Antagonist Activity; rated A/B/C; read-out: Av. MCH Ki
pKi: −log10 of the molar value.
Each entry below lists one item and its recorded pKi value.

Below, 5 molecules whose answers are already recorded.
molecule="O=C(CN1CCc2cc(-c3cccc(C(=O)O)c3)ccc2C1C1CCN(C2CCCC2)CC1)Nc1cc(Cl)cc(Cl)c1 (centres unmarked) [Example 18]" result="< 6.30"
molecule="CCS(=O)(=O)N1CCC(C2c3ccc(-c4cccc(C#N)c4)cc3CCN2CC(=O)Nc2cc(Cl)cc(Cl)c2)CC1 (centres unmarked) [Example 39]" result="< 6.30"
molecule="N#Cc1cccc(-c2ccc3c(c2)CCN(CC(=O)Nc2cc(Cl)cc(Cl)c2)C3C2CCN(Cc3nccs3)CC2)c1 (centres unmarked) [Example 38]" result="6.30 to 7.00"
molecule="O=Cc1cccc(-c2ccc3c(c2)CCN(CC(=O)Nc2cc(Cl)cc(Cl)c2)C3C2CCN(C3CCCC3)CC2)c1 (centres unmarked) [Example 9]" result="7.00 to 9.00"
molecule="CN1CCC(C2c3ccc(-c4cccc(C#N)c4)cc3CCN2Cc2nc3cc(Cl)c(Cl)cc3[nH]2)CC1 (centres unmarked) [Example 44]" result="6.30 to 7.00"

So what's the measured pKi for this one? O=C(CN1CCc2cc(-c3cccc(F)c3)ccc2C1C1CCN(C2CCCC2)CC1)Nc1cc(Cl)cc(Cl)c1 (centres unmarked) [Example 4] 7.00 to 9.00

---

- Tested target: MCH receptor (Homo sapiens)
- Construct: expressed in transfected cells; host or cells: CHO cells
- Assay info: MCH Receptor Binding Assay ([125I]-MCH, SPA, membranes from CHO cells expressing the MCH receptor)
- Condition description: MCH Receptor Antagonist Activity; rated A/B/C; read-out: Av. MCH Ki
Endpoint: Ki

Below, 5 compounds whose answers are already recorded.
compound="N#Cc1ccc(-c2ccc3c(c2)CCN(CC(=O)Nc2cc(Cl)cc(Cl)c2)C3C2CCN(C3CCCC3)CC2)cc1 (centres unmarked)" endpoint=Ki result="100 to 500 nM"
compound="N#Cc1cccc(-c2ccc3c(c2)CCN(CC(=O)Nc2cc(Cl)cc(Cl)c2)C3C2CCN(CCCc3ccccc3)CC2)c1 (centres unmarked)" endpoint=Ki result="1 to 100 nM"
compound="O=C(CN1CCc2cc(-c3cccc(Cl)c3)ccc2C1C1CCN(C2CCCC2)CC1)Nc1cc(Cl)cc(Cl)c1 (centres unmarked)" endpoint=Ki result="1 to 100 nM"
compound="CN1CCC(N2CCC(C3c4ccc(-c5cccc(C#N)c5)cc4CCN3CC(=O)Nc3cc(Cl)cc(Cl)c3)CC2)CC1 (centres unmarked)" endpoint=Ki result="1 to 100 nM"
compound="CS(=O)(=O)N1CCC(C2c3ccc(-c4cccc(C#N)c4)cc3CCN2CC(=O)Nc2cc(Cl)cc(Cl)c2)CC1 (centres unmarked)" endpoint=Ki result="> 500 nM"

# query: Ki | item CC(C)N1CCC(C2c3ccc(-c4cccc(C#N)c4)cc3CCN2CC(=O)Nc2cc(Cl)cc(Cl)c2)CC1 (centres unmarked) | system: MCH receptor (Homo sapiens) 1 to 100 nM

Now the compound N#Cc1cccc(-c2ccc3c(c2)CCN(Cc2nc4cc(Cl)c(Cl)cc4[nH]2)C3C2CCN(Cc3ccccc3)CC2)c1 (centres unmarked) 1 to 100 nM

Now the compound O=C(CN1CCc2cc(-c3cccc(C(F)(F)F)c3)ccc2C1C1CCN(C2CCCC2)CC1)Nc1cc(Cl)cc(Cl)c1 (centres unmarked) 100 to 500 nM

Now the compound N#Cc1cccc(-c2ccc3c(c2)CCN(C(=O)Nc2cc(Cl)cc(Cl)c2)C3C2CCN(Cc3ccccc3)CC2)c1 (centres unmarked) > 500 nM

Now the compound N#Cc1cccc(-c2ccc3c(c2)CCN(C(=O)Nc2ccc(Cl)c(Cl)c2)C3C2CCN(Cc3ccccc3)CC2)c1 (centres unmarked) > 500 nM

Now the compound N#Cc1cccc(-c2ccc3c(c2)CCN(CC(=O)Nc2cc(Cl)cc(Cl)c2)C3C2CCN(C(=O)C3CCCC3)CC2)c1 (centres unmarked) > 500 nM

# credit: patent US7498441B2
